Origin of the recorded values: the nanobody polyreactivity screen of Harvey et al. (2022)

- procedure_details: yeast display, Sf9 membrane polyspecificity reagent, FACS + sequencing; frameworks hold sequencing errors
property_measured: polyreactivity (PSR sort gate)

biosequence=QVQLVESGGGLVQAGGSLRLICAASGRIFNSYAMGWFRQAPGKEMELVAAISRNGGITYYADSVKGRFTISRDNAKNTVYFQMNSLKPEDTAVYYCNADSSRRRYSSDYWGQGTQVTVSS property_measured="polyreactivity (PSR sort gate)" recorded_result="high polyreactivity"
biosequence=QVQLVESGGGLVQAGGSLRLSCAASGSTFLYYTMGWYRQAPGKERELVATISRDGSTKYADSVKGRFTISRDNAKITVYLQMNSLKPEDTAVYYCAAARDSIVYGQYDYWGQGTQVTVSS property_measured="polyreactivity (PSR sort gate)" recorded_result="low polyreactivity"
biosequence=QVQLVESGGGLVQAGGSLRLICAASGYIFKHNAMGWYRQAPGKERELVAAISWSGVSTYYADSVTGRFTISRDNAKNTVYLQMNSLKPEDTAVYYCNAPAIAPIYDYWGQGTQVTVSS property_measured="polyreactivity (PSR sort gate)" recorded_result="low polyreactivity"
biosequence=QVQLVESGGGLVQAGGSLRLSCAASGRTYGWYAMGWYRQAPGKERELVAAIRSSGGRTHYADSVKGRFTISRDNAKNTVYLQMNSLKPEDTAVYYCAARYSAAYYWGQGTQVTVSS property_measured="polyreactivity (PSR sort gate)" recorded_result="high polyreactivity"
biosequence=QVQLVESWGGLVQAGGSLRLSCAASGFTFTSYAMGCYRQAPGKEREFVAGITKGGGNTYYSDSVKGRFTISRDNAKNTVYLHMNSLKPEDTEVYYCAADRSSFYLSHGTVDCYDYWGQATQVTVSS property_measured="polyreactivity (PSR sort gate)" recorded_result="low polyreactivity"
biosequence=QVQLVESGGGLVQAGGSLRLRCGASGSTFGIYAMGWYRQAPGKERELVAAITLRTDSTYYADSVKGRFTISRDNAKNTVYLQMNSLKPEDTAVYYCARRYRYGYDYWGQGTQVSVSS property_measured="polyreactivity (PSR sort gate)" recorded_result="low polyreactivity"
biosequence=QVQLVESGGGLVQAGGSLRLSCAASGSIFWYYAMGWYRQAPGKERELVADITSTGGSTYYADSVKGRFTISRDNAKNTVYLQMNSLKPEDTAVYYCAADNTYSEEDYWGQGTQVNVSS property_measured="polyreactivity (PSR sort gate)" recorded_result="high polyreactivity"
biosequence=QVQLVESGGGLFQAGGSLRLSCAASGSTFQYNAMGWYRQAPGKERELVARITSGGRTDYADSVKGRFTITRDNAKNTVYLQMNSLKPEDTAVYYCAARYGYRGSTKYLSKPFYYWGQGTQVNVSS property_measured="polyreactivity (PSR sort gate)" recorded_result="high polyreactivity"
biosequence=QVQLVESGGGLVQAGGSLRLSCAASGRIFVNYAMGWYRQAPGKERELVAAITSSGGSTYYADSVKGRFTISRDNAKNTVYLQMNSLKPEDTAVYYCAARWGRGLEFDYWGQGTQVTVSS property_measured="polyreactivity (PSR sort gate)" recorded_result="high polyreactivity"
biosequence=QEQLVQSAGGLVQAGGSLPLSCAASGSIIISNAMGWYRQAPGKERELVAAISRSGARTYYADSVKGRFTISRDNAKNTVYLQMNSLKPEDTAVYSCAVDGYSPYKYDYWGQGTLVTVSS property_measured="polyreactivity (PSR sort gate)" recorded_result="high polyreactivity"
biosequence=QVQLVDSGGGLVQAGGSLRLSCAASVRIFTINAMGWYRPAPGKDRELVAAISDGGGSTYYADSVKGRFTISRYNAKNTVYLQMNSLKPEDTAVYYCARKSWPKERRVDPGYDYGGQGTQVTVSS property_measured="polyreactivity (PSR sort gate)" recorded_result="low polyreactivity"
